Collected literature values of Ki measured for HPK1 (Homo sapiens (Human), UniProt Q92918).
Measured endpoint: Ki

> print(dat)
                                    compound                             target.system  measured.endpoint  endpoint.result
 1  COc1cccc(F)c1-c1cc2c(NCc3ccc(N4CCN(C)CC4)cc3)n[nH]c2cn1  HPK1 (Homo sapiens (Human), UniProt Q92918)                 Ki   500 to 2000 nM
 2  CNCc1cc(C)c(-c2cc3c(-c4ccc(NC(C)=O)cc4)n[nH]c3cc2C#N)c(F)c1  HPK1 (Homo sapiens (Human), UniProt Q92918)                 Ki         ≤ 100 nM
 3  CN1CCN(c2ccc(-c3n[nH]c4ccc(-c5cccc6c5CCC6NCc5ccccc5)nc34)cc2)CC1 (centres unmarked)  HPK1 (Homo sapiens (Human), UniProt Q92918)                 Ki         ≤ 100 nM
 4  CNC1CCc2cc(F)c(-c3cc4c(-c5ccc(N6CCN(C)CC6)cc5)n[nH]c4cn3)c(F)c21 (centres unmarked)  HPK1 (Homo sapiens (Human), UniProt Q92918)                 Ki         ≤ 100 nM
 5  NC(=O)Cn1cc(-c2cnc3c(c2Cl)C2(CC=CC2)CN3)cn1  HPK1 (Homo sapiens (Human), UniProt Q92918)                 Ki           236 nM
 6  COc1cccc(F)c1-c1nccc(C(=O)Nc2cc(F)c3c(cnn3CCO)c2N2CC[C@@H](N)C2)n1  HPK1 (Homo sapiens (Human), UniProt Q92918)                 Ki         < 100 nM
 7  Cc1[nH]c2ncc(-c3cccc(N4CCCNC4=O)n3)cc2c1C(F)(F)F  HPK1 (Homo sapiens (Human), UniProt Q92918)                 Ki            82 nM
 8  Cc1cc2c(c(F)c1-c1ncc3[nH]nc(-c4ccc(N5CCN(C)CC5)nc4)c3n1)CNCC2  HPK1 (Homo sapiens (Human), UniProt Q92918)                 Ki         ≤ 100 nM
 9  O=S(=O)(c1ccc(-c2n[nH]c3cnc(-c4c(F)cc5c(c4F)CNCC5)nc23)cc1)N1CCC1  HPK1 (Homo sapiens (Human), UniProt Q92918)                 Ki         ≤ 100 nM
10  CN1CCN(c2ccc(-c3n[nH]c4ccc(-c5cccnc5)nc34)cc2)CC1  HPK1 (Homo sapiens (Human), UniProt Q92918)                 Ki         ≤ 100 nM
11  Cn1cc(Nc2ccc3c(-c4cnc5c(c4)C4(CC4)CN5)c[nH]c3c2)cn1  HPK1 (Homo sapiens (Human), UniProt Q92918)                 Ki            94 nM
12  CNCCc1cc(F)c(-c2cc3c(-c4cnn(C)c4)n[nH]c3cn2)c(F)c1  HPK1 (Homo sapiens (Human), UniProt Q92918)                 Ki         ≤ 100 nM
13  COc1cccc(F)c1-c1cc2c(NC(=O)c3ccc(F)cc3)n[nH]c2cn1  HPK1 (Homo sapiens (Human), UniProt Q92918)                 Ki         ≤ 100 nM
14  O=C1CNCCN1c1cccc(-c2cnc3c(c2)C2(CC2)CN3)c1  HPK1 (Homo sapiens (Human), UniProt Q92918)                 Ki           100 nM
15  COc1cccc(F)c1-c1cc2c(NC(=O)c3cccc(F)c3)n[nH]c2cn1  HPK1 (Homo sapiens (Human), UniProt Q92918)                 Ki         ≤ 100 nM
16  CNCc1cc(F)c(-c2cc3c(-c4ccc(C5CC5)nc4)n[nH]c3cn2)c(C(F)(F)F)c1  HPK1 (Homo sapiens (Human), UniProt Q92918)                 Ki         ≤ 100 nM
17  Cc1c(-c2cc3c(NC(=O)c4ccc(N5CCOCC5)cc4)n[nH]c3cn2)cnn1C  HPK1 (Homo sapiens (Human), UniProt Q92918)                 Ki         ≤ 100 nM
18  OCc1ccc(-c2cnc3c(c2Cl)C2(CC=CC2)CN3)c(F)c1  HPK1 (Homo sapiens (Human), UniProt Q92918)                 Ki           330 nM
19  O=C1NCCCC1c1cccc(-c2cnc3c(c2Cl)C2(CC2)CN3)c1 (centres unmarked)  HPK1 (Homo sapiens (Human), UniProt Q92918)                 Ki          43.7 nM
20  Cc1c(-c2ccc(N)c(C(=O)N(C)C)c2F)cnc2c1C1(CCCCC1)CN2  HPK1 (Homo sapiens (Human), UniProt Q92918)                 Ki          26.1 nM

---

Target or system HPK1 (Homo sapiens (Human)); metric Ki; compiled from varied reports.
Measured endpoint: Ki

> print(dat)
                                    molecule  measured.endpoint  endpoint.result
 1  COc1cccc(F)c1-c1cc2c(NC(=O)c3cccc(N4CCOCC4)c3)n[nH]c2cn1                 Ki         ≤ 0.1 µM
 2  CNC(C)c1cc(C)c(-c2cc3c(-c4cnn(C5CC5)c4)n[nH]c3cn2)c(F)c1 (single isomer, unassigned)                 Ki         ≤ 0.1 µM
 3  O=C1COCCN1c1cccc(-c2cnc3c(c2)C2(CCC2)CN3)c1                 Ki        0.0987 µM
 4  CN(C)C(=O)c1cc(-c2cnc3c(c2)C2(CCC2)CN3)ccc1N                 Ki        0.0717 µM
 5  CN(CCO)C(=O)c1c(N)ccc(-c2cnc3c(c2)C2(CC2)CN3)c1F                 Ki        0.0216 µM
 6  COc1cccc(F)c1-c1nccc(C(=O)Nc2ccc3sc(C)nc3c2N2C[C@H](NC3CCOCC3)C[C@H]2CO)n1                 Ki         < 0.1 µM
 7  COc1cccc(F)c1-c1cc2c(NC(=O)c3cccc(N4CCN(CC(F)(F)F)C(=O)C4)c3)n[nH]c2cn1                 Ki         ≤ 0.1 µM
 8  CNCc1cc(F)c(-c2ncc3[nH]nc(-c4ccc(OC)cc4)c3n2)c(F)c1                 Ki         ≤ 0.1 µM
 9  CNCc1cc(F)c(-c2cc3c(-c4ccc(N5CCN(C)CC5)cc4)n[nH]c3cn2)c(C(F)(F)F)c1                 Ki         ≤ 0.1 µM
10  N#CCCNC(=O)c1ccc(-c2cnc3c(c2Cl)C2(CC=CC2)CN3)cc1                 Ki         0.303 µM
11  CNCc1cc(F)c(-c2ncc3[nH]nc(-c4ccc(N5CCN(CC(C)(C)O)CC5)nc4)c3n2)c(F)c1                 Ki         ≤ 0.1 µM
12  Fc1cc2c(c(F)c1-c1ncc3[nH]nc(-c4ccc(OC(F)F)nc4)c3n1)CNCC2                 Ki         ≤ 0.1 µM
13  Cc1c(-c2ccc(N)c(C(=O)N(C)C)c2F)cnc2c1C1(CC1)CN2                 Ki        0.0539 µM

---

// molecules with reported pKi on HPK1 (Homo sapiens (Human), UniProt Q92918), multi-publication
pKi: −log10 of the molar value.
Measured endpoint: pKi

> print(dat)
                                  cpd.smiles  endpoint.result
 1  CN(C)C(=O)c1cc(-c2cnc3c(c2)C2(CC2)CN3)ccc1CO             6.59
 2  CNCc1ccc(C)c(-c2cc3c(-c4cnn(C)c4)n[nH]c3cn2)c1           ≥ 7.00
 3  COc1cccc(Cl)c1-c1cc2c(-c3ccc(N4CCN(C)CC4)cc3)n[nH]c2cn1           ≥ 7.00
 4  CNCc1cc(C)c(-c2cc3c(-c4ccc(N5CC(CO)C5)nc4)n[nH]c3cc2C#N)c(F)c1           ≥ 7.00
 5  Clc1c(-c2ccc3[nH]ccc3c2)cnc2c1C1(CC=CC1)CN2             6.20
 6  N#Cc1cc2c(-c3cnc4c(c3)C3(CC3)CN4)c[nH]c2cn1             7.45
 7  CNC(=O)c1ccc(-c2n[nH]c3ccc(-c4ccccc4F)nc23)cc1     6.30 to 7.00
 8  CCOC(=O)N1CCN(c2ccc(C(=O)Nc3n[nH]c4cnc(-c5cnn(C)c5C)cc34)cc2)CC1           ≥ 7.00
 9  CN1CCN(c2ccc(-c3n[nH]c4cnc(-c5cccnc5)nc34)cc2)CC1           ≥ 7.00
10  COc1cccc(F)c1-c1cc2c(C(=O)Nc3ccc(N4CCN(C)CC4)cc3)n[nH]c2cn1           ≥ 7.00
11  N#Cc1ccc2[nH]nc(-c3cnc4c(c3)C3(CC3)CN4)c2c1             7.43
12  CC1(C)C(=O)Nc2ccc(-c3cnc4c(c3)C3(CC3)CN4)cc21             7.67
13  COc1cccc(F)c1-c1nccc(C(=O)Nc2ccc3sc(CN(C)C)nc3c2N2C[C@H](N)C[C@H]2CO)n1           > 7.00
14  CN(c1cc(C#N)cc2c(-c3cnc4c(c3)C3(CC3)CN4)cn(C)c12)S(C)(=O)=O             7.91
15  CN1CCN(c2ccc(-c3n[nH]c4cnc(-c5c(F)cccc5CC#N)cc34)cc2)CC1           ≥ 7.00
16  CNCc1cc(C)c(-c2cc3c(-c4cnn(C)c4)n[nH]c3cn2)c(F)c1           ≥ 7.00
17  CNC(=O)c1ccc(OC)c(-c2nccc(C(=O)Nc3cc(F)c4c(cnn4CCOC)c3N3C[C@@H](N)C[C@H]3CO)n2)c1F           > 7.00
18  COc1cccc(F)c1-c1nccc(C(=O)Nc2cc(Br)c3sc(C)nc3c2N2CC[C@H](N)C2)n1           > 7.00
19  COc1cccc(F)c1-c1cc2c(NC(=O)c3ccc(Br)cc3)n[nH]c2cn1           ≥ 7.00
20  CNCc1cc(C)c(-c2cc3c(-c4cccc(N5CCC(O)CC5)n4)n[nH]c3cc2C#N)c(F)c1           ≥ 7.00
21  Cc1cc2[nH]cc(-c3cnc4c(c3)C3(CC3)CN4)c2cc1-c1cnn(C)c1             7.33
